Biological target: T1, E6AP AZUL 24-87 (Homo sapiens, UniProt Q05086)
T1 chain: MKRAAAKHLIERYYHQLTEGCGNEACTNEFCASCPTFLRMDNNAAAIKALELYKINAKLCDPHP
Assay: fluorescence competition (25 nM S358C-acrylodan:AZUL)
assay_readout: pKi
// field semantics: pKi = negative decimal log of concentration (mol/L)

What the record says about EEDDYDVMQDPEFLQSVLENLPGVDPNNEAIRNAMGSLASQATKD [Rpn10 RAZUL peptide 322-366] : pKi is 5.90
